src = patent US20230399312A1

- System: TGF-β-stimulated SMAD3 phosphorylation in BEAS-2B cells
- protocol summary: Cellular ALK5 potency assay, inhibition of TGF-β stimulated pSMAD3 formation in BEAS-2B cells
- Format: cell-based
- stated conditions: Homo sapiens, pSMAD3, TGF-β 10 ng/mL, read-out: BEAS2B pIC50 (converted)
- Procedure: The potency of compounds of the present disclosure for inhibition of TGF-β-stimulated SMAD3 phosphorylation was measured in BEAS-2B cells, a human lung epithelial cell line. […] For the assay, BEAS-2B cells were seeded at 7,500 cells/well (25 μL/well) in a 384-well plate and cultured overnight. […] AlphaLISA Acceptor and Detector beads (PerkinElmer) were added 2 hours apart, then incubated overnight to be read the next day. […] Data are expressed as pIC50 (negative decadic logarithm IC50) values.
The entries below are paired with their reported IC50.

Cc1cccc(-c2nc(Nc3ccnc(Nc4ccc(NC5CNC5)cc4)n3)c3cccn3n2)n1 [Compound 1040]    25.1 to 158 nM

Data request: I am curious: what IC50 value has been reported for Cc1cccc(-c2nccc(Nc3ccnc(Nc4nc(C(=O)OC5CCNCC5)cs4)n3)n2)n1 [Compound 148] ?
Data returned: 25.1 to 158 nM

Data request: Also, CC[C@H](C)OC(=O)Cc1cc(Nc2nccc(Nc3ccnc(-c4cccc(C)n4)n3)n2)ccc1N1CCNCC1 [Compound 466] please.
Data returned: 25.1 to 158 nM

Data request: Please give the result for Cc1cccc(-c2nccc(Nc3ccnc(Nc4csc(NC(=O)C5CNC5)c4)n3)n2)n1 [Compound 211] too.
Data returned: 25.1 to 158 nM

Data request: Check Cc1cccc(-c2nc(Nc3ccnc(Nc4ccc(C(=O)N5CCNCC5)cc4)n3)c3cccn3n2)n1 [Compound 1038] too.
Data returned: 25.1 to 158 nM

Data request: And what about the molecule Cc1cccc(-c2nccc(Nc3ccnc(Nc4ccc(C(=O)OCC56CNCC5C6)nc4)n3)n2)n1 (stereo not drawn) [Compound 557] ?
Data returned: 200 to 1260 nM

Data request: Can you handle Cc1cccc(-c2nccc(Nc3ccnc(Nc4ccc(CN5CCC[C@@H](C(=O)O)C5)cc4)n3)n2)n1 [Compound 428] next?
Data returned: 200 to 1260 nM

Data request: Try the molecule Cc1cccc(-c2nccc(Nc3ccnc(Nc4ccc(N5CCN(CCN)CC5)cc4)n3)n2)n1 [Compound 478]
Data returned: 200 to 1260 nM

Data request: What do we get for Cc1cccc(-c2nccc(Nc3ccnc(Nc4ncc(N5C[C@@H](C)N[C@@H](C)C5)s4)n3)n2)n1 [Compound 604] ?
Data returned: 200 to 1260 nM

Data request: For Cc1cccc(-c2nccc(Nc3ccnc(Nc4cccc(S(=O)(=O)N(C)C5CCNCC5)c4)n3)n2)n1 [Compound 87] then?
Data returned: 200 to 1260 nM

Data request: Let us now turn to Cc1cccc(-c2nccc(Nc3ccnc(Nc4ccc(N5CCN(C(=O)CSC(CCO)C(=O)O)CC5)cc4)n3)n2)n1 (stereo not drawn) [Compound 37]
Data returned: 200 to 1260 nM

Data request: Now this one: Cc1cccc(-c2nccc(Nc3ccnc(Nc4csc(C(=O)NC5(CO)CCNC5)c4)n3)n2)n1 (stereo not drawn) [Compound 40]
Data returned: 25.1 to 158 nM

Data request: Queued: Cc1cccc(-c2nccc(Nc3ccnc(Nc4ccc(CN5CCC(C(=O)OCC6CNC6)CC5)cc4)n3)n2)n1 [Compound 275]
Data returned: 25.1 to 158 nM

Data request: Check CN1CCN(C2CCN(c3ccc(Nc4nccc(Nc5ccnc(-c6ccccc6F)n5)n4)cc3)CC2)CC1 [Compound 446] too.
Data returned: 25.1 to 158 nM

Data request: What do you have for Cc1cccc(-c2nccc(Nc3ccnc(Nc4ccc(C(=O)OCCN5CCNCC5)cn4)n3)n2)n1 [Compound 581] ?
Data returned: 25.1 to 158 nM
